Molecular target: Voltage-gated potassium channel subunit beta-2 (Rattus norvegicus)
Assay: KvBeta enzyme negative modulators, primary screen, biochemical, NADPH fluorescence (AID 622);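 note: slope of raw intensity against log time taken from 70 to 1610 s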
Conditions: recombinant KvBeta, 4-cyanobenzaldehyde reduction, at 10 µM, hits give high values
Calls of active or inactive are those of the source.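 Rule for the calls: active = fluorescence slope higher than the sample average by over 3 SD (cut at about -0.22 in these data, passing the limit was not always enough); inactive = the rest.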
PROPERTY MEASURED: fluorescence slope

1. CCN1C(=O)C2(C(C#N)=C(N)Oc3n[nH]c(C(C)C)c32)c2ccccc21 (stereo not given)
-0.485 (inactive)
2. Cc1nn(CC(N)=O)c(=O)c2ccccc12
-0.485 (inactive)
3. CC1(C)Cc2ccccc2-c2c1c(=O)n(-c1ccccc1)c1nnnn21
-0.51 (inactive)
4. Cc1cc(C)cc(NC(=O)C2CCCN(S(=O)(=O)c3cnc[nH]3)C2)c1 (stereo not given)
-0.523 (inactive)
5. CC(C)COc1ccc(C(=O)NC(CC(C)C)C(=O)O)cc1 (stereo not given)
-0.484 (inactive)

====

Experiment: inhibitors of Sendai virus-induced IRF3 signaling, primary screen, TLR/RLR signaling modifier project, cell-based, Sendai virus stimulus, luciferase, 10K MLSCN set (AID 602276);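 note: firefly luciferase from ISG56 promoter only with Renilla not read in this screen; 0% = Sendai virus plus DMSO and 100% = medium plus DMSO without virus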
Settings: HEK293 RL24 IRF3 luciferase reporter, at 10 µM, hits give high values
PROPERTY MEASURED: inhibition (%)

1) CCN(CC)CCN1C(=O)Cn2c(C)c(C)c3cccc1c32
15
2) CC(C)CCn1c(=O)c2ccccc2n2c(CN(C)Cc3ccccc3)nnc12
8.18
3) CCCCC(=O)NCCc1cc2c(C)ccc(C)c2[nH]c1=O
10.6
4) O=C(Nc1ncc(Br)s1)C1CCCN1S(=O)(=O)c1cccc2cccnc12 (stereo unspecified)
4.87
5) C=CCc1ccccc1OCCCCN1CCCC1
-11.7
6) Cn1c(=O)cc(OCCCC(=O)Nc2ccc3c(c2)OCCO3)c2ccccc21
-5.46
7) Cc1cc(C)c(C(=O)CSc2nnc(-c3ccccc3Br)o2)cc1C
9.09
8) COC(=O)c1ccc(-n2nnnc2SCc2nn[nH]n2)cc1
-8.25
9) CCOc1ccc(N2C(=O)CC(N3CC(C)OC(C)C3)C2=O)cc1 (stereo unspecified)
9.5
10) COC(=O)n1c(=S)oc2cc(Cl)ccc21
16.6
11) CN(C)/C=C1\N=C(c2ccc3c(c2)OCO3)OC1=O
-20.5

====

Assay: inhibitors of E-selectin induction by TNFa, primary screen, imaging, HUVEC, immunofluorescence, MLSMR starter and 10KST1 sets (AID 487);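 note: signal is fraction of cell area covered by stained E-selectin grains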
Details: HUVEC TNFalpha-induced E-selectin immunofluorescence imaging, at 2 µM; hits give high values
PROPERTY MEASURED: inhibition (%)

1. O=C1C=C(N2CCN(C3=CC(=O)CCC3)CC2)CCC1
4.1
2. CCOC(=O)CNC(=O)CCCCCC(=O)NCC(=O)OCC
-27.8
3. O=C1c2ccccc2C(=O)N1CC(O)Cn1nnc2ccccc21 (stereo unspecified)
-47.9
4. Cc1cc2c(c(=O)n1Cc1ccccn1)C(c1ccc3c(c1)OCO3)C(C#N)=C(N)O2 (stereo unspecified)
-44.9
5. COc1ccc(OC)c(S(=O)(=O)Nc2ccccc2SC)c1
20.9
6. CN(C)/C=C1\N=C(c2ccc3c(c2)OCO3)OC1=O
46.5

====

Assay: inhibitors of mutant huntingtin aggregation, primary screen, imaging, exon1htt(103Q)mCFP cells, high-content imaging (AID 483);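 note: compound exposure lasted 3 days before fixation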
Settings: exon1htt(103Q)mCFP cell line, aggregate imaging, at 2 µM; hits give high values
Hi, to clarify the labels: Y covers inhibition of aggregation from -10% upward, N covers anything below -10%.

1) CC(O)c1cc2c(cc1NC(=O)c1cnn3c1NC(c1ccco1)CC3C(F)(F)F)OCO2 (stereo unspecified)
N
2) CCN(CC)CCn1c(=N)n(CCO)c2ccccc21
Y
3) COc1ccc(CNC(=O)c2cc3c(=O)n4ccccc4nc3n(Cc3ccco3)c2=N)cc1
N
4) CCCC1(C(=O)OCC)NC(c2ccc(N(C)C)cc2)C2C(=O)N(c3ccc(F)cc3)C(=O)C21 (stereo unspecified)
Y
5) CC(=O)Nc1c(C(=O)C2CC2)oc2ccccc12
N
6) Cn1nnc2cc(C(=O)N3CCCCCC3)ccc21
Y
